Catalogue of pSTAT3 MFI, CD4+ T cells, 100 nM (unstimulated 1778) values
Biological target: T1, IL10Rα/IL2Rγ receptor (human, UniProt Q13651 22-578; P31785 23-369)
T1 sequence (looked up) 1: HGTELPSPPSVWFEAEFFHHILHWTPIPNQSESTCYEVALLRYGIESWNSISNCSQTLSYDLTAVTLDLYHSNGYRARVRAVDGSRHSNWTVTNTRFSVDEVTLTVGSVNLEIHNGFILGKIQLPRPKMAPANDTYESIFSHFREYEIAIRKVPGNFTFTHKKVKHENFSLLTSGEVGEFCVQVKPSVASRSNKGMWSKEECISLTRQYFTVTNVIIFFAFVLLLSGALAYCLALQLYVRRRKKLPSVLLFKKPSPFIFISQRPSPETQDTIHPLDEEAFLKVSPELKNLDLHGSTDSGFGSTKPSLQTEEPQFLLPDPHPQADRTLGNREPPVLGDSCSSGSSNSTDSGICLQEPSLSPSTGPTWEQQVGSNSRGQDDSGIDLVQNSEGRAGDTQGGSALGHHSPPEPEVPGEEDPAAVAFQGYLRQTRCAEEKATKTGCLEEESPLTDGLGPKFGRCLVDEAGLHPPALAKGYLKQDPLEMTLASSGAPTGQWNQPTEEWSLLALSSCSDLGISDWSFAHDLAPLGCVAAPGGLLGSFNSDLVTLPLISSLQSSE
T1 sequence (looked up) 2: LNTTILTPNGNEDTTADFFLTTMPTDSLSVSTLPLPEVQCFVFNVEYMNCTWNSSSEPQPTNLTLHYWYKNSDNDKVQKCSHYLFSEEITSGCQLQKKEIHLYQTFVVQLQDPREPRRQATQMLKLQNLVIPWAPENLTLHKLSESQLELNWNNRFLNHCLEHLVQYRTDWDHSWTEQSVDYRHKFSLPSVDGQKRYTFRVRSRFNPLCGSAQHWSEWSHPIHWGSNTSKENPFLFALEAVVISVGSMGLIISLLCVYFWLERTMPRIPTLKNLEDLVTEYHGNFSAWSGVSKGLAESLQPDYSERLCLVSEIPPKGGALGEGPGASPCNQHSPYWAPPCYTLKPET
Assay: cell-based or functional assay

Consider the worked cases shown below.
{"columns": ["binder", "result"],
 "data": [
  ["DR438(DR235-DR234) (bispecific antibody) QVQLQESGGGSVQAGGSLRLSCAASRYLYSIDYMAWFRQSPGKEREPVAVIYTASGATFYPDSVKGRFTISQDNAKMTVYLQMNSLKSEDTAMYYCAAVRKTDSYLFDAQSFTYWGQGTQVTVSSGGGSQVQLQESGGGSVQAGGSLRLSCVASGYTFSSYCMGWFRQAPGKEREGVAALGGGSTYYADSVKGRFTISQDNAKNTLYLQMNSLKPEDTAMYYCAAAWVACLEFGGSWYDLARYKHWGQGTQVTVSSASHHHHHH", "2780 MFI"],
  ["DR474(DR241-DR234) (bispecific antibody) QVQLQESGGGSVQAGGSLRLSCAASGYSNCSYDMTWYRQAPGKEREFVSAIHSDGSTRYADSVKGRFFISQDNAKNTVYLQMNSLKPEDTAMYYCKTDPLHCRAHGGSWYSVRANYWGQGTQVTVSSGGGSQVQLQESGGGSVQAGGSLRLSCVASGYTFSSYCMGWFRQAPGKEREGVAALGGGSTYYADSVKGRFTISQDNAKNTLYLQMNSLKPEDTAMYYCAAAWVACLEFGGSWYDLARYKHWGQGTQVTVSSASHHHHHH", "3770 MFI"]
]}

**Q:** Which pSTAT3 MFI, CD4+ T cells, 100 nM (unstimulated 1778) is reported for this binder? DR465(DR240-DR231) (bispecific antibody) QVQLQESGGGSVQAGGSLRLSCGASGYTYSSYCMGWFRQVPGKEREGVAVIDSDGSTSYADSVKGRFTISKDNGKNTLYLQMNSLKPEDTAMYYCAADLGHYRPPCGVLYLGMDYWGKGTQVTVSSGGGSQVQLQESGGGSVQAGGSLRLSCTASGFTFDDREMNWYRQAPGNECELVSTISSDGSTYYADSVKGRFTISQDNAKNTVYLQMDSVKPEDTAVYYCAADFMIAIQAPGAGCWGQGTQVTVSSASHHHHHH
**A:** 6350 MFI

**Q:** Please look up its pSTAT3 MFI, CD4+ T cells, 100 nM (unstimulated 1778): DR395(DR229-DR239) (bispecific antibody) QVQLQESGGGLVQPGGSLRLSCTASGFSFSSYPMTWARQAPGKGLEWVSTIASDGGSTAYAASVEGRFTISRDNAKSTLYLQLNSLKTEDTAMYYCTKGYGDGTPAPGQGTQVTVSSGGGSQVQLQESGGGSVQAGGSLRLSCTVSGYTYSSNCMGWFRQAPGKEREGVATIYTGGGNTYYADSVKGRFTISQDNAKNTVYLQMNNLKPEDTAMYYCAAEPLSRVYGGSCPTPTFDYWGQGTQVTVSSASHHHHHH
**A:** 3570 MFI

**Q:** Which value of pSTAT3 MFI, CD4+ T cells, 100 nM (unstimulated 1778) has been reported for DR441(DR236-DR231) (bispecific antibody) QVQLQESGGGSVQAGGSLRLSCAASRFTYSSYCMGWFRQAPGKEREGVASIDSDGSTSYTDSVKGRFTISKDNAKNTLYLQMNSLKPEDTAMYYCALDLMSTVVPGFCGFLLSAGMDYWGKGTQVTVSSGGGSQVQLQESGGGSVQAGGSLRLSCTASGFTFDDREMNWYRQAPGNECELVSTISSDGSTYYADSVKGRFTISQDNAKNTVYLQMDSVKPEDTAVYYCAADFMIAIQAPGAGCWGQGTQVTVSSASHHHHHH in the records?
**A:** 5760 MFI
